- System: OVCAR-5 ovarian
- experimentalProtocol: NCI tumour cell line growth inhibition, 48 h

molecule	TGI
C=C(CC)C(=O)c1ccc(OCC(=O)O)c(Cl)c1Cl	> 62.6 µM
COC(=O)C(Cc1c(-c2[nH]c3ccccc3c2CC(NC(C)=O)C(=O)OC)[nH]c2ccccc12)NC(C)=O (stereo not given)	> 100 µM
Cc1cc(N(CCC#N)CCC#N)ccc1/C(Sc1ccccc1)=C(\NC(=O)/C=C/c1ccccc1)C(=O)Sc1ccccc1	16.3 µM
COc1ccc(/C=N/NS(=O)(=O)c2ccc(/C=C3\NC(=O)NC3=O)cc2)cc1	> 100 µM
O=C(N[C@H](CO)[C@H](O)c1ccc([N+](=O)[O-])cc1)C(Cl)Cl	> 100 µM
CN(C)/C=N/c1cc(=O)n(C)c(=O)n1C	> 100 µM
COC1(OC)CCC2(C)OC(c3ccccc3)C1O2 (stereo not given)	> 100 µM
CCOC(=O)C(Cc1ccccc1)n1c(O)c(/C=N/c2ncc(Cc3ccc(Cl)cc3Cl)s2)sc1=S (stereo not given)	> 100 µM
Cn1ccc(S(=O)(=O)N2CCC[C@H](Nc3nccc(-c4c(-c5cccc(O)c5)nc5occn45)n3)C2)n1	> 100 µM
C=CC(=O)C#Cc1cnc(OC)nc1OC	33.9 µM
